Each entry below lists one item and its recorded Kd value.
Molecular target: biotinylated human DLL3 protein expressed as a human IgG1 fusion protein (human) (UniProt Q9NYJ7)
Sequence (Q9NYJ7 other isoform, or with tags, fused parts or gaps): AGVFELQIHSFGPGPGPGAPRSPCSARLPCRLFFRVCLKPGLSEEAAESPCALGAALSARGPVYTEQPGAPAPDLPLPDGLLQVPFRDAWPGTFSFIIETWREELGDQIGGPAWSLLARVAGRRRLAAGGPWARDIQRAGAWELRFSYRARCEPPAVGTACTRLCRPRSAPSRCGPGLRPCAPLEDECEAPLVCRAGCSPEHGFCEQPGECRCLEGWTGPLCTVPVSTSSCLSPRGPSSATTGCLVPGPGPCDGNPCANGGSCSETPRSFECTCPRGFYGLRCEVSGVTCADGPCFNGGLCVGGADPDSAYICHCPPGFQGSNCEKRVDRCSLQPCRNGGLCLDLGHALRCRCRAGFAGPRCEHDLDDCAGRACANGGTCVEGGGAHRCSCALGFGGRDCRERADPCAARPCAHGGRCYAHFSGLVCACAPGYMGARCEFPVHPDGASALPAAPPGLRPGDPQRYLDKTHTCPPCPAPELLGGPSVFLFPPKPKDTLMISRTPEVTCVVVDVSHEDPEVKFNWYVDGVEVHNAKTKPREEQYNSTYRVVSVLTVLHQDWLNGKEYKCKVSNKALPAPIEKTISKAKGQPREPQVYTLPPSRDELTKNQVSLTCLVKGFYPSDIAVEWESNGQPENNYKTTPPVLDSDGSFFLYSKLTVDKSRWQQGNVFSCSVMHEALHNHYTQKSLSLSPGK
Assay: Octet BLI; biotinylated huDLL3-IgG1 fusion on streptavidin tips; single 50 nM; conditioned medium
MEASUREMENT TYPE: Kd (nM)

BINDER	ASSAY RESULT
anti-DLL3 trispecific protein 1A07 (protein, part only; not given: anti-CD3 fragment and anti-albumin domain, part only) chain, part: EVQLVESGGGLVQPGGSLTLSCVASGSISSINAMGWYRRAPGKQRELVAGISSDGSKVYADSVKGRFTISRDNAKNSVYLQMNSLRAEDTAVYYCYYFRMVSGSSMRYWGQGTLVTVSSGGGGSGGGSGGGGSGGGSHHHHHH	8.6
anti-DLL3 trispecific protein 4H08 (protein, part only; not given: anti-CD3 fragment and anti-albumin sdAb, part only) chain, part: EVQLVESGGGLVQPGGSLTLSCAASGSSVKFLSMAWYRQAPGKKRELVAGISADGSTDYVDSVKGRFTISRDNAKNSVYLQMNSLRAEDTAVYYCYAYRWSTRYTYWGQGTLVTVSSGGGGSGGGSGGGGSGGGSHHHHHH	8.9
anti-DLL3 trispecific protein 4A07 (protein, part only; not given: CD3 binder and albumin binder, part only) chain, part: EVQLVESGGGLVQPGGSLTLSCAASGSKVSFLSMAWYRQAPGKKRELVAGISADGSTLYIDSVKGRFTISRDNAKNSVYLQMNSLRAEDTAVYYCYAYRWTTRYRYWGQGTLVTVSSGGGGSGGGSGGGGSGGGSHHHHHH	9.8
anti-DLL3 trispecific protein 1C04 (protein, part only; not given: anti-CD3 fragment and anti-albumin sdAb, part only) chain, part: EVQLVESGGGLVQPGGSLTLSCVASGNTSSINAMAWYRRAPGKQRELVAGISSDGSKVYADSVKGRFTISRDNAKNSVYLQMNSLRAEDTAVYYCYYFRTVSGSSMRYWGQGTLVTVSSGGGGSGGGSGGGGSGGGSHHHHHH	8.1
